# reported pIC50; entries follow
Biological target: human recombinant FGFR1 (Homo sapiens, UniProt P11362)
Sequence (P11362 22-822): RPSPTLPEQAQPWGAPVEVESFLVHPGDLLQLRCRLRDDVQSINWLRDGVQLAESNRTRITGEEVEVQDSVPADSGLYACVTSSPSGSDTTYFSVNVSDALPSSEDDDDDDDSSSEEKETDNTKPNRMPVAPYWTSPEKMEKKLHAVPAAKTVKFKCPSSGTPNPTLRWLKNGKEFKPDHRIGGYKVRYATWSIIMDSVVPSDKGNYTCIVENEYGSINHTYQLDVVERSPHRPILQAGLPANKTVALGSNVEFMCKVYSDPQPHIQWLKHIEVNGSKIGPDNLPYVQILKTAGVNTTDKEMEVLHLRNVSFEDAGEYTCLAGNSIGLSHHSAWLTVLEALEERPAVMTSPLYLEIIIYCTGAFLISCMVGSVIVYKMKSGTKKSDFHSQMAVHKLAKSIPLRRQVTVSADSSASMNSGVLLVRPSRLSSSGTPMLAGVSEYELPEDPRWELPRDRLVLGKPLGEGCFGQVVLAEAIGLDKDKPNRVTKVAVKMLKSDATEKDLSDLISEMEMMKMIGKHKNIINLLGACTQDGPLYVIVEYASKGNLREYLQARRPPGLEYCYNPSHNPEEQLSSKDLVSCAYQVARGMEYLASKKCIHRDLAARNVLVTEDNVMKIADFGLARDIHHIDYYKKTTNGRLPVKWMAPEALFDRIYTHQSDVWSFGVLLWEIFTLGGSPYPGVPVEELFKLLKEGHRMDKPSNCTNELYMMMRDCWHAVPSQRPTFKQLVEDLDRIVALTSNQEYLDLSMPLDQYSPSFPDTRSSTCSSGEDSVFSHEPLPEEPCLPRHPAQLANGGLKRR
Assay: FGFR family enzymatic activity assay (Caliper-based kinase assay), FGFR1
Format: biochemical
Details: FGFR1 0.5 nM, ATP 100 μM, peptide substrate 1 μM, room temperature 3 h
pIC50: −log10 of the molar value.

[
  {
    "Test Smiles": "C=CC(=O)Nc1ccc(CCn2c(=O)c(-c3cc(OC)cc(OC)c3F)cc3cnc(NCCN4CCOCC4)nc32)cc1",
    "pIC50": 8.70
  },
  {
    "Test Smiles": "C#CCNc1ncc2cc(-c3c(Cl)c(OC)cc(OC)c3Cl)c(=O)n(CCc3ccc(NC(=O)C=C)cn3)c2n1",
    "pIC50": 9.52
  },
  {
    "Test Smiles": "C=CC(=O)Nc1ccc(CCn2c(=O)c(-c3cc(OC)cc(OC)c3Cl)cc3cnc(NCC(C)(C)O)nc32)cc1",
    "pIC50": 8.77
  },
  {
    "Test Smiles": "C=CC(=O)Nc1cn(CCn2c(=O)c(-c3cc(OC)cc(OC)c3Cl)cc3cnc(NC)nc32)cn1",
    "pIC50": 7.32
  },
  {
    "Test Smiles": "C=CC(=O)Nc1ccc(CCn2c(=O)c(-c3cc(OC)cc(OC)c3Cl)cc3cnc(NC(C)(C)CN4CCOCC4)nc32)cc1",
    "pIC50": 8.64
  },
  {
    "Test Smiles": "C=CC(=O)Nc1ccc(CCn2c(=O)c(-c3cc(OC)cc(OC)c3Cl)cc3cnc(NCC(C)(C)O)nc32)cn1",
    "pIC50": 8.37
  },
  {
    "Test Smiles": "C=CC(=O)Nc1ccc(CCn2c(=O)c(-c3c(Cl)c(OC)cc(OC)c3Cl)cc3cnc(NC4CCOCC4)nc32)cc1",
    "pIC50": 9.70
  },
  {
    "Test Smiles": "C=CC(=O)Nc1ccc(CCn2c(=O)c(-c3c(Cl)c(OC)cc(OC)c3Cl)cc3cnc(NC)nc32)cc1",
    "pIC50": 8.89
  },
  {
    "Test Smiles": "C=CC(=O)Nc1ccc(CCn2c(=O)c(-c3c(Cl)c(OC)cc(OC)c3Cl)cc3cnc(NC4CCN(C)CC4)nc32)cc1",
    "pIC50": 9.15
  },
  {
    "Test Smiles": "C=CC(=O)Nc1ccc(CCn2c(=O)c(-c3cc(OC)cc(OC)c3Cl)cc3cnc(NCC(C)(C)C)nc32)cn1",
    "pIC50": 8.29
  },
  {
    "Test Smiles": "C=CC(=O)Nc1ccc(CCn2c(=O)c(-c3c(Cl)cccc3Cl)cc3cnc(NC)nc32)nc1",
    "pIC50": 7.90
  },
  {
    "Test Smiles": "C=CC(=O)Nc1ccc(CCn2c(=O)c(-c3cc(OC)cc(OC)c3Cl)cc3cnc(NCCN4[C@H](C)CNC[C@@H]4C)nc32)cc1",
    "pIC50": 9.30
  },
  {
    "Test Smiles": "C=CC(=O)Nc1ccc(CCn2c(=O)c(-c3c(Cl)c(OC)cc(OC)c3Cl)cc3cnc(NCC(C)(C)O)nc32)nc1",
    "pIC50": 9.15
  },
  {
    "Test Smiles": "C=CC(=O)Nc1ccc(CCn2c(=O)c(-c3c(Cl)c(OC)cc(OC)c3Cl)cc3cnc(NCC4(O)CCN(C)CC4)nc32)cc1",
    "pIC50": 9.52
  }
]

====

Target: human recombinant FGFR4 (Homo sapiens, UniProt P22455)
Sequence (P22455 22-802): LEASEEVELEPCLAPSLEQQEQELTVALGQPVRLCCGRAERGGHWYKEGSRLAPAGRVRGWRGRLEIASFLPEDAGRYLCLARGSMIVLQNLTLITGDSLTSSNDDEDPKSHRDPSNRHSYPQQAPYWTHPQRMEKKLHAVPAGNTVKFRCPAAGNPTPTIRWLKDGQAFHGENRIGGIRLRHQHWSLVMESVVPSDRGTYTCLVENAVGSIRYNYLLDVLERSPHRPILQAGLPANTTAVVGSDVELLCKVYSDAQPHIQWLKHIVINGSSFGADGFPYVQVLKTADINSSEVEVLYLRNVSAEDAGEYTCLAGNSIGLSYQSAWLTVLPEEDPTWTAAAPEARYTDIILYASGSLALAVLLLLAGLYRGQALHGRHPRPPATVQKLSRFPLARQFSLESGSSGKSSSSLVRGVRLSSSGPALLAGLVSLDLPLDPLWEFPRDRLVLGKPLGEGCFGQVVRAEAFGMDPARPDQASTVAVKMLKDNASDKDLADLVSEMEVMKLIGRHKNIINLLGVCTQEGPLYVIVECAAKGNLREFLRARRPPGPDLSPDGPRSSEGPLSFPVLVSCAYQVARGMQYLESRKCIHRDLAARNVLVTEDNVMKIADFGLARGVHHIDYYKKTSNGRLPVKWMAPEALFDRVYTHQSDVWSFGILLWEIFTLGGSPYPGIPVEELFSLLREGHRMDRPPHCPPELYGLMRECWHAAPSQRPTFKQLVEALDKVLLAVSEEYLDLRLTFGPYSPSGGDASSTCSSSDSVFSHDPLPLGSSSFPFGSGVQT
Test: FGFR family enzymatic activity assay (Caliper-based kinase assay), FGFR4
Conditions: FGFR4 2 nM, ATP 250 μM, peptide substrate 1 μM, room temperature 3 h
Recorded Endpoint: log10 of IC50 (log10 of the value in nM)

[
  {
    "Compound": "C=CC(=O)Nc1ccc(CCn2c(=O)c(-c3c(Cl)c(OC)cc(OC)c3Cl)cc3cnc(NC)nc32)nc1 [Example 38]",
    "log10 of IC50": 0.80
  },
  {
    "Compound": "C=CC(=O)Nc1ccc(CCn2c(=O)c(-c3cc(OC)cc(OC)c3Cl)cc3cnc(NCC4CCN(C)CC4)nc32)cc1 [Example 71]",
    "log10 of IC50": 1.98
  },
  {
    "Compound": "C=CC(=O)Nc1ccc(CCn2c(=O)c(-c3c(Cl)c(OC)cc(OC)c3Cl)cc3cnc(NCCO)nc32)cc1 [Example 65]",
    "log10 of IC50": 1.14
  },
  {
    "Compound": "C=CC(=O)Nc1cccc(Cn2c(=O)c(-c3c(Cl)c(OC)cc(OC)c3Cl)cc3cnc(NCCCCN(CC)CC)nc32)c1 [Example 6]",
    "log10 of IC50": 1.52
  },
  {
    "Compound": "C=CC(=O)Nc1ccc(CCn2c(=O)c(-c3c(Cl)c(OC)cc(OC)c3Cl)cc3cnc(NCC(C)(C)O)nc32)cc1 [Example 64]",
    "log10 of IC50": 1.30
  },
  {
    "Compound": "C=CC(=O)Nc1ccc(CCn2c(=O)c(-c3c(Cl)c(OC)cc(OC)c3Cl)cc3cnc(NCCN4CCOCC4)nc32)cc1 [Example 44]",
    "log10 of IC50": 1.15
  }
]

====

Target: human recombinant FGFR4 (Homo sapiens, UniProt P22455)
Assay: FGFR family enzymatic activity assay (Caliper-based kinase assay), FGFR4
Details: FGFR4 2 nM, ATP 250 μM, peptide substrate 1 μM, room temperature 3 h
Counter-ions that a name gives are not always drawn.

[
  {
    "Compound": "C=CC(=O)Nc1ccc(CCn2c(=O)c(-c3cc(OC)cc(OC)c3Cl)cc3cnc(NC(CO)CO)nc32)cc1",
    "IC50": "43.3 nM"
  },
  {
    "Compound": "C=CC(=O)Nc1ccc(CCn2c(=O)c(-c3c(Cl)c(OC)cc(OC)c3Cl)cc3cnc(NCCN4CCOCC4)nc32)nc1",
    "IC50": "12.8 nM"
  },
  {
    "Compound": "C=CC(=O)Nc1ccc(CCn2c(=O)c(-c3cc(OC)cc(OC)c3Cl)cc3cnc(NC)nc32)cn1",
    "IC50": "6.9 nM"
  },
  {
    "Compound": "C=CC(=O)Nc1ccc(CCn2c(=O)c(-c3cc(OC)cc(OC)c3Cl)cc3cnc(NCCN4CCN(C(C)=O)CC4)nc32)cc1",
    "IC50": "41 nM"
  },
  {
    "Compound": "C=CC(=O)Nc1ccc(CCn2c(=O)c(-c3c(Cl)c(OC)cc(OC)c3Cl)cc3cnc(NCCCCN(CC)CC)nc32)cc1 [Example 5, hydrochloride]",
    "IC50": "32.4 nM"
  }
]

====

Biological target: human recombinant FGFR1 (Homo sapiens, UniProt P11362)
Assay: FGFR family enzymatic activity assay (Caliper-based kinase assay), FGFR1
Conditions: FGFR1 0.5 nM, ATP 100 μM, peptide substrate 1 μM, room temperature 3 h
// IC50 lookup, one value per entry

[
  {
    "Test Smiles": "C=CC(=O)Nc1ccc(CCn2c(=O)c(-c3cc(OC)cc(OC)c3Cl)cc3cnc(NCCN4CCOCC4)nc32)nc1",
    "Target": "human recombinant FGFR1 (Homo sapiens, UniProt P11362)",
    "Readout Units": "nM",
    "IC50": 0.9
  },
  {
    "Test Smiles": "C=CC(=O)Nc1cccc(CCn2c(=O)c(-c3cc(OC)cc(OC)c3F)cc3cnc(NCCN4CCOCC4)nc32)c1",
    "Target": "human recombinant FGFR1 (Homo sapiens, UniProt P11362)",
    "Readout Units": "nM",
    "IC50": 5.4
  },
  {
    "Test Smiles": "CNc1ncc2cc(-c3cc(OC)cc(OC)c3Cl)c(=O)n(CCc3cccc(NC(=O)/C=C/CN(C)C)c3)c2n1",
    "Target": "human recombinant FGFR1 (Homo sapiens, UniProt P11362)",
    "Readout Units": "nM",
    "IC50": 1.2
  },
  {
    "Test Smiles": "C=CC(=O)Nc1ccc(CCn2c(=O)c(-c3c(Cl)c(OC)cc(OC)c3Cl)cc3cnc(NCC4CCN(C)CC4)nc32)cc1",
    "Target": "human recombinant FGFR1 (Homo sapiens, UniProt P11362)",
    "Readout Units": "nM",
    "IC50": 0.4
  }
]

====

Molecular target: human recombinant FGFR3 (Homo sapiens, UniProt P22607)
Sequence (P22607 23-806): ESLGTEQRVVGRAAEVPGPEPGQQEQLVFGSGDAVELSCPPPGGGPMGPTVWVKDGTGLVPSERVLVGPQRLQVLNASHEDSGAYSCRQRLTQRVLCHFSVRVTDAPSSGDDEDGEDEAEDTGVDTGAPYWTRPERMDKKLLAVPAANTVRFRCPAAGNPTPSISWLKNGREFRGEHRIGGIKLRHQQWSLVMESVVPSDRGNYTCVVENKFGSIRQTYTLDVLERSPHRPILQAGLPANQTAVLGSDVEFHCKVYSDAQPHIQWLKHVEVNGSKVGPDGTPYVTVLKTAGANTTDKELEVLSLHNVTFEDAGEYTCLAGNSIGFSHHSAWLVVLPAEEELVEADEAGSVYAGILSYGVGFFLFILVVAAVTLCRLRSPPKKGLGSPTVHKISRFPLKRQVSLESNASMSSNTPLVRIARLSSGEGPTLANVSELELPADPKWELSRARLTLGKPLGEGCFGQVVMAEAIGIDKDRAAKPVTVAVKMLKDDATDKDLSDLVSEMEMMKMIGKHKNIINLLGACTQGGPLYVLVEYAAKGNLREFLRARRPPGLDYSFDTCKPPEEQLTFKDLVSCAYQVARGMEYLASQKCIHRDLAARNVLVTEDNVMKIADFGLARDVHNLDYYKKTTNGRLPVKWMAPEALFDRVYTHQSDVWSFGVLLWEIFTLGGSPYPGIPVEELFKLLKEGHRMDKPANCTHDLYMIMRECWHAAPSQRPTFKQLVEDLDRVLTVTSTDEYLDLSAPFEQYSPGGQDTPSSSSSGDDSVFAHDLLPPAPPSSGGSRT
Test: FGFR family enzymatic activity assay (Caliper-based kinase assay), FGFR3
Conditions: FGFR3 0.9 nM, ATP 120 μM, peptide substrate 1 μM, room temperature 3 h

[
  {
    "Test Smiles": "C=CC(=O)Nc1ccc(CCn2c(=O)c(-c3cc(OC)cc(OC)c3Cl)cc3cnc(NC)nc32)cc1",
    "IC50 (nM)": 2.3
  },
  {
    "Test Smiles": "C=CC(=O)Nc1ccc(CCn2c(=O)c(-c3cc(OC)cc(OC)c3Cl)cc3cnc(NCC4CCN(C)CC4)nc32)cc1",
    "IC50 (nM)": 5.9
  },
  {
    "Test Smiles": "C=CC(=O)Nc1ccc(CCn2c(=O)c(-c3cc(OC)cc(OC)c3Cl)cc3cnc(NC(CO)CO)nc32)cc1",
    "IC50 (nM)": 6.8
  },
  {
    "Test Smiles": "C=CC(=O)Nc1ccc(CCn2c(=O)c(-c3c(Cl)c(OC)cc(OC)c3Cl)cc3cnc(NCC4CCN(C)CC4)nc32)cc1",
    "IC50 (nM)": 3.3
  },
  {
    "Test Smiles": "C=CC(=O)Nc1ccc(CCn2c(=O)c(-c3c(Cl)c(OC)cc(OC)c3Cl)cc3cnc(NC)nc32)cc1",
    "IC50 (nM)": 3.1
  },
  {
    "Test Smiles": "C=CC(=O)Nc1cccc(CCn2c(=O)c(-c3cc(OC)cc(OC)c3)cc3cnc(NC)nc32)c1",
    "IC50 (nM)": 19
  },
  {
    "Test Smiles": "C=CC(=O)Nc1ccc(CCn2c(=O)c(-c3cc(OC)cc(OC)c3Cl)cc3cnc(NC)nc32)cn1",
    "IC50 (nM)": 2.3
  }
]

The reported numbers originate from patent US9630963B2.
